# systemName: PARK7 (Homo sapiens, UniProt Q99497)
# Sequence (Q99497 whole entry): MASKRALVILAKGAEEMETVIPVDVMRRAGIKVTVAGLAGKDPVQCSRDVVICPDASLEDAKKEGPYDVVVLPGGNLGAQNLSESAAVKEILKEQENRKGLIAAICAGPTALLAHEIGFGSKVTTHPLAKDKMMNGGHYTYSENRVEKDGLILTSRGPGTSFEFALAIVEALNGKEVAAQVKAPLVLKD
# experimentalProtocol: High-throughput screen of the crude compound library, PARK7 fluorescence polarization (FP) assay with FP reagent JYQ-107
# Format: biochemical
# measurementParameters: 1.25 µM, crude compound library; read-out: HTS FP assay %Inhibition (1.25 µM)
Each record's class is read off its inhibition at 1.25 µM using these ranges: bottom bin = under 70%, middle bin = from 70% up to 80%, top bin = 80% and over

| compound | group |
| --- | --- |
| Cc1noc(C)c1S(=O)(=O)N1CCC(C(=O)N2CCc3nc(NC(=O)[C@@H]4CCN(C#N)C4)sc3C2)CC1 | bottom bin |
| N#CN1CC[C@@H](C(=O)Nc2nc3c(s2)CN(C(=O)C2CC=CCC2C(=O)N2CCOCC2)CC3)C1 (some centres unmarked) | middle bin |
| N#CN1CC[C@@H](C(=O)Nc2nc3c(s2)CN(C(=O)c2coc(C#Cc4ccccc4)c2)CC3)C1 | top bin |
| N#CN1CC[C@@H](C(=O)Nc2nc3c(s2)CN(C(=O)c2cccnc2-n2cncn2)CC3)C1 | middle bin |
| N#CN1CC[C@@H](C(=O)Nc2nc3c(s2)CN(C(=O)[C@@H]2CCCO[C@H]2c2ccccc2)CC3)C1 | bottom bin |
| COCC1CCN(c2ccc(C(=O)N3CCc4nc(NC(=O)[C@@H]5CCN(C#N)C5)sc4C3)cc2)C1 (some centres unmarked) | middle bin |
| N#CN1CC[C@@H](C(=O)Nc2nc3c(s2)CN(C(=O)c2cn(CCc4ccccc4)nn2)CC3)C1 | top bin |
| N#CN1CC[C@@H](C(=O)Nc2nc3c(s2)CN(C(=O)c2ccc(-c4ccccn4)nc2)CC3)C1 | top bin |
| N#CN1CC[C@@H](C(=O)Nc2nc3c(s2)CN(C(=O)Cc2cc(-c4ccccc4)on2)CC3)C1 | middle bin |
| N#CN1CC[C@@H](C(=O)Nc2nc3c(s2)CN(C(=O)[C@@H]2C[C@H]2c2ccco2)CC3)C1 | top bin |
| N#CN1CC[C@@H](C(=O)Nc2nc3c(s2)CN(C(=O)c2cccc(S(=O)(=O)NC4CC4)c2)CC3)C1 | top bin |
| CN(CC(=O)N1CCCC(C(=O)N2CCc3nc(NC(=O)[C@@H]4CCN(C#N)C4)sc3C2)C1)c1ccc(Cl)cn1 (some centres unmarked) | top bin |
| N#CN1CC[C@@H](C(=O)Nc2nc3c(s2)CN(C(=O)c2ccc(-n4ccnc4)nn2)CC3)C1 | bottom bin |
| CN1C(=O)CCC(C(=O)N2CCc3nc(NC(=O)[C@@H]4CCN(C#N)C4)sc3C2)C1c1cccs1 (some centres unmarked) | bottom bin |
| Cn1nc(CC(=O)N2CCc3nc(NC(=O)[C@@H]4CCN(C#N)C4)sc3C2)cc1C1CC1 | top bin |
| N#CN1CC[C@@H](C(=O)Nc2nc3c(s2)CN(C(=O)c2csc(-c4ccccn4)n2)CC3)C1 | top bin |
| Cn1cc(NS(=O)(=O)c2ccsc2C(=O)N2CCc3nc(NC(=O)[C@@H]4CCN(C#N)C4)sc3C2)cn1 | bottom bin |
| CC1CN(S(=O)(=O)c2ccc(C(=O)N3CCc4nc(NC(=O)[C@@H]5CCN(C#N)C5)sc4C3)cc2)CC(C)O1 (some centres unmarked) | top bin |
| Cc1ccc(Oc2ccc(C(=O)N3CCc4nc(NC(=O)[C@@H]5CCN(C#N)C5)sc4C3)nc2)cc1 | top bin |

###

# systemName: PARK7 (Homo sapiens, UniProt Q99497)
# experimentalProtocol: High-throughput screen of the crude compound library, PARK7 fluorescence polarization (FP) assay with FP reagent JYQ-107
# Type: biochemical
# measurementParameters: 1.25 µM, crude compound library, FP reagent JYQ-107; read-out: HTS FP assay %Inhibition (1.25 µM)
measurementLabel: inhibition at 1.25 µM (%)

| compound | recordedNumber |
| --- | --- |
| N#CN1CC[C@@H](C(=O)Nc2nc3c(s2)CN(C(=O)c2cc(C4CCC4)on2)CC3)C1 [compound 374] | 84 |
| N#CN1CC[C@@H](C(=O)Nc2nc3c(s2)CN(C(=O)c2ccccc2I)CC3)C1 [compound 391] | 73.6 |
| N#CN1CC[C@@H](C(=O)Nc2nc3c(s2)CN(C(=O)C2CC2)CC3)C1 [compound 464] | 78.9 |
| N#CN1CC[C@@H](C(=O)Nc2nc3c(s2)CN(C(=O)C2CCCN(c4ccc(Cl)nn4)C2)CC3)C1 (stereo partly drawn) [compound 356] | 76.2 |
| N#CN1CC[C@@H](C(=O)Nc2nc3c(s2)CN(C(=O)CC2CCN(c4ccc(Cl)nn4)CC2)CC3)C1 [compound 371] | 74.8 |
| N#CN1CC[C@@H](C(=O)Nc2nc3c(s2)CN(C(=O)CN2C(=O)c4ccccc4C2=O)CC3)C1 [compound 436] | 72.4 |
| N#CN1CC[C@@H](C(=O)Nc2nc3c(s2)CN(C(=O)c2ccccc2C=O)CC3)C1 [compound 432] | 57.9 |
| N#CN1CC[C@@H](C(=O)Nc2nc3c(s2)CN(C(=O)c2cnn(CC4CCC4)c2)CC3)C1 [compound 372] | 81.6 |
| N#CN1CC[C@@H](C(=O)Nc2nc3c(s2)CN(C(=O)C2CCN(c4ncccn4)CC2)CC3)C1 [compound 476] | 70.3 |
| CNc1ccc(C(=O)N2CCc3nc(NC(=O)[C@@H]4CCN(C#N)C4)sc3C2)cc1 [compound 439] | 73.3 |
| N#CN1CC[C@@H](C(=O)Nc2nc3c(s2)CN(C(=O)Cc2ccc([N+](=O)[O-])cc2)CC3)C1 [compound 399] | 58.2 |
| CCn1nc(C(C)C)cc1C(=O)N1CCCCC1C(=O)N1CCc2nc(NC(=O)[C@@H]3CCN(C#N)C3)sc2C1 (stereo partly drawn) [compound 349] | 59.6 |
| CC(C)CC(=O)N1CCc2nc(NC(=O)[C@@H]3CCN(C#N)C3)sc2C1 [compound 390] | 67.9 |
| N#CN1CC[C@@H](C(=O)Nc2nc3c(s2)CN(C(=O)c2ccc(=O)n(C4CC4)c2)CC3)C1 [Compound 369] | 89.2 |
| Cn1cc(-c2nc(C(=O)N3CCc4nc(NC(=O)[C@@H]5CCN(C#N)C5)sc4C3)cs2)cn1 [compound 360] | 72.2 |

###

inhibition at 1.25 µM overview
# systemName: PARK7 (Homo sapiens)
# experimentalProtocol: High-throughput screen of the crude compound library, PARK7 fluorescence polarization (FP) assay with FP reagent JYQ-107
# Assay type: biochemical
# measurementParameters: 1.25 µM, crude compound library; read-out: HTS FP assay %Inhibition (1.25 µM)

| smilesData | inhibition at 1.25 µM (%) |
| --- | --- |
| N#CN1CC[C@@H](C(=O)Nc2nc3c(s2)CN(C(=O)c2cnnn2-c2ccccc2Cl)CC3)C1 | 68.9 |
| N#CN1CC[C@@H](C(=O)Nc2nc3c(s2)CN(C(=O)c2ccc(N4CCCCCC4)nc2)CC3)C1 | 84.5 |
| N#CN1CC[C@@H](C(=O)Nc2nc3c(s2)CN(C(=O)c2c[nH]nc2-c2ccncc2)CC3)C1 | 69.7 |
| COc1ccccc1-c1nnc(CC(=O)N2CCc3nc(NC(=O)[C@@H]4CCN(C#N)C4)sc3C2)o1 | 74.3 |
| Cc1noc(-c2ccc(C(=O)N3CCc4nc(NC(=O)[C@@H]5CCN(C#N)C5)sc4C3)cc2)n1 | 58.5 |
| N#CN1CC[C@@H](C(=O)Nc2nc3c(s2)CN(C(=O)c2ccn(-c4ncc(C(F)(F)F)cc4Cl)n2)CC3)C1 | 85.7 |
| N#CN1CC[C@@H](C(=O)Nc2nc3c(s2)CN(C(=O)C(=O)N2CCN(c4ccccc4)CC2)CC3)C1 | 78.6 |

###

# systemName: PARK7 (Homo sapiens)
# experimentalProtocol: High-throughput screen of the crude compound library, PARK7 fluorescence polarization (FP) assay with FP reagent JYQ-107
# Format: biochemical
# measurementParameters: 1.25 µM, crude compound library; read-out: HTS FP assay %Inhibition (1.25 µM)

| smilesData | inhibition at 1.25 µM (%) |
| --- | --- |
| Cn1nccc1[C@@H]1OCCC[C@H]1C(=O)N1CCc2nc(NC(=O)[C@@H]3CCN(C#N)C3)sc2C1 | 68.5 |
| N#CN1CC[C@@H](C(=O)Nc2nc3c(s2)CN(C(=O)c2ccc(-c4nnco4)cc2)CC3)C1 | 85.9 |
| CN(Cc1ccco1)c1ccccc1C(=O)N1CCc2nc(NC(=O)[C@@H]3CCN(C#N)C3)sc2C1 | 72.7 |
| N#CN1CC[C@@H](C(=O)Nc2nc3c(s2)CN(C(=O)c2nc(OCC4CC4)ccc2Cl)CC3)C1 | 53.7 |
| N#CN1CC[C@@H](C(=O)Nc2nc3c(s2)CN(C(=O)c2ccc(OCn4cc(Cl)cn4)cc2)CC3)C1 | 82.4 |
| N#CN1CC[C@@H](C(=O)Nc2nc3c(s2)CN(C(=O)c2ccccc2Cn2cncn2)CC3)C1 | 66.3 |
| N#CN1CC[C@@H](C(=O)Nc2nc3c(s2)CN(C(=O)c2cccnc2Oc2ccccc2Br)CC3)C1 | 94.5 |

Where do these numbers come from? They come from paper PMC11129182.
